Values from ChEMBL document CHEMBL6121046

# Assayed target: Histone deacetylase 7 (Homo sapiens)
# Sequence (Q8WUI4 whole entry): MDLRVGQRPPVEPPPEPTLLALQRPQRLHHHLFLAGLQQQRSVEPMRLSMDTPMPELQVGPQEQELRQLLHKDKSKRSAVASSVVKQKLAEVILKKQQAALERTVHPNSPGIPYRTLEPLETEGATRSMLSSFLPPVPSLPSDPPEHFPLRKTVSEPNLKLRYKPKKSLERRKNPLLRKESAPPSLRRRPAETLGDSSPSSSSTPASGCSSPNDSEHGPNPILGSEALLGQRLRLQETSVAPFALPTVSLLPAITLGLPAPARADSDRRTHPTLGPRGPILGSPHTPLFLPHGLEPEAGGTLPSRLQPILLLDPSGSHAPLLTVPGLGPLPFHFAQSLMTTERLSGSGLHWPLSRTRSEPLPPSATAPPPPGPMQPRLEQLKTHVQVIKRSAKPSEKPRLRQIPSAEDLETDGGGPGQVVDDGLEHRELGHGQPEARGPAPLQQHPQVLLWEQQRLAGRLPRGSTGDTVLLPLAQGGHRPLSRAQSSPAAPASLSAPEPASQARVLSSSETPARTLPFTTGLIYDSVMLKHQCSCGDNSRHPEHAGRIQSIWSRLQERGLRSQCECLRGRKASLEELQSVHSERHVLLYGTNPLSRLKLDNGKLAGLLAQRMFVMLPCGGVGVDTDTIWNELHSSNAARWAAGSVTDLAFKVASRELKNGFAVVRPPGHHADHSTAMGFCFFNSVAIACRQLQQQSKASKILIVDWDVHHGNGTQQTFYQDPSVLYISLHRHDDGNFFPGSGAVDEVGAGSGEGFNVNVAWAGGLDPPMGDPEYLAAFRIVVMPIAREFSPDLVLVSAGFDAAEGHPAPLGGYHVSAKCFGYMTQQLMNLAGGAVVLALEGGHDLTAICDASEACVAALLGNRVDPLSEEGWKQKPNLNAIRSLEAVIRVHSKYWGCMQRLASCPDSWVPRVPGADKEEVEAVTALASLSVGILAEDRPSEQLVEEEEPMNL
# Protocol text: Inhibition of human recombinant HDAC7 pre-incubated with compounds for 10 mins measured followed by 60 mins of substrate addition
Parameter measured: IC50

Example entries and their recorded answers appear below.
CCCNNC(=O)c1ccc(CNC(=O)c2cnc(-c3ccc(F)cc3)[nH]2)cc1 : > 10 µM
CCCNNC(=O)c1ccc(CNC(=O)c2cnc(-c3cccc4ccccc34)[nH]2)cc1 : > 10 µM
Nc1ccccc1NC(=O)c1ccc(CNC(=O)c2cnc(-c3ccc4ccccc4c3)[nH]2)cc1 : > 10 µM
CCCNNC(=O)c1ccc(CNC(=O)c2cnc(-c3ccc4occc4c3)[nH]2)cc1 : > 10 µM

--- query ---
Given item `Nc1ccccc1NC(=O)c1ccc(CNC(=O)c2cnc(-c3ccccc3)[nH]2)cc1` , the value recorded as its IC50 is > 10 µM

---

# Assayed target: Histone deacetylase 3 (Homo sapiens, UniProt O15379)
# Sequence (O15379 whole entry): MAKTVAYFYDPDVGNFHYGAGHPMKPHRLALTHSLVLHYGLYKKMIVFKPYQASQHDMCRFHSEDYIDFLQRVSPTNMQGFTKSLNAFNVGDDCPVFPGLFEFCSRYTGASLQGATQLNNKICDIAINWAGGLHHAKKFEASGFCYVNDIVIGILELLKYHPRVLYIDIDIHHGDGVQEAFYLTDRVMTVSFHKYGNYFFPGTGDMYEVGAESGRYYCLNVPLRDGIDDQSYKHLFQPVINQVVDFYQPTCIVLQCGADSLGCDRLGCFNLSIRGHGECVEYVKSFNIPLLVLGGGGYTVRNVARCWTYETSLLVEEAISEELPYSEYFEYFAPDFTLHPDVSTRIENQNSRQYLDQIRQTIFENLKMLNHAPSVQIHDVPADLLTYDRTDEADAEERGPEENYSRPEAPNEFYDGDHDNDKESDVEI
# Protocol text: Inhibition of human recombinant HDAC3 pre-incubated with compounds for 10 mins measured followed by 60 mins of substrate addition
Parameter measured: IC50 (nM)

Example entries and their recorded answers appear below.
CCCNNC(=O)c1ccc(CNC(=O)c2cnc(-c3cccc4ccccc34)[nH]2)cc1 : 61
CCCNNC(=O)c1ccc(CNC(=O)c2cnc(-c3ccc4ccccc4c3)[nH]2)cc1 : 74
Nc1ccccc1NC(=O)c1ccc(CNC(=O)c2cnc(-c3ccc4ccccc4c3)[nH]2)cc1 : 100

I. CCCNNC(=O)c1ccc(CNC(=O)c2cnc(-c3ccc(F)cc3)[nH]2)cc1
II. COc1ccc(-c2ncc(C(=O)NCCCCCCC(=O)NO)s2)c(OC)c1
Returns the identifier with the smallest measured IC50 among I and II . Pick one and reply with its label.
II
(II: 31 nM, I: 130 nM)

P. CCCNNC(=O)c1ccc(CNC(=O)c2cnc(-c3ccnc4ccccc34)[nH]2)cc1
Q. CCCNNC(=O)c1ccc(CNC(=O)c2cnc(-c3ccc4c(c3)OCCO4)[nH]2)cc1
Of P and Q , whose reported IC50 is the larger number? Pick one and reply with its label.
Q
(Q: 290 nM, P: 170 nM)

P. Nc1ccccc1NC(=O)c1ccc(CNC(=O)c2cnc(-c3ccccc3)[nH]2)cc1
Q. CCCNNC(=O)c1ccc(CNC(=O)c2cnc(-c3ccccc3)[nH]2)cc1
R. Nc1ccccc1NC(=O)c1ccc(CNC(=O)c2cnc(-c3ccc4c(c3)OCCO4)[nH]2)cc1
Thanks in advance: please rank these 3 entries by IC50, highest to lowest. # format: label list in the order the request specifies
R, P, Q
(R: 330 nM, P: 120 nM, Q: 66 nM)

---

# Assayed target: Histone deacetylase 8 (Homo sapiens, UniProt Q9BY41)
# Sequence (Q9BY41 whole entry): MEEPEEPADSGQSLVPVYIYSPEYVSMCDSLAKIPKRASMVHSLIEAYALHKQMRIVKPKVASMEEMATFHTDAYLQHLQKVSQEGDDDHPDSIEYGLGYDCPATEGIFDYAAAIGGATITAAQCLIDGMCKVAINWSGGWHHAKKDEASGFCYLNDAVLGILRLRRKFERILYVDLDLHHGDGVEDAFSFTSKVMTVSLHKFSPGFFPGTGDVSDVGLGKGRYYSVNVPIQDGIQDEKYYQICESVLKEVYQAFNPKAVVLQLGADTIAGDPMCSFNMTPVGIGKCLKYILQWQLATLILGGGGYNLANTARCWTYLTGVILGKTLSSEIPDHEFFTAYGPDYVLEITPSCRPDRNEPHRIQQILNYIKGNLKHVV
# Protocol text: Inhibition of human recombinant HDAC8 pre-incubated with compounds for 10 mins measured followed by 60 mins of substrate addition
pIC50: −log10 of the molar value.
Collected pIC50 values appear next to each entry.

Example entries and their recorded answers appear below.
CCCNNC(=O)c1ccc(CNC(=O)c2cnc(-c3ccccc3)[nH]2)cc1 : < 5.00
CCCNNC(=O)c1ccc(CNC(=O)c2cnc(-c3ccc4ccccc4c3)[nH]2)cc1 : < 5.00
Nc1ccccc1NC(=O)c1ccc(CNC(=O)c2cnc(-c3ccccc3)[nH]2)cc1 : < 5.00
CCCNNC(=O)c1ccc(CNC(=O)c2cnc(-c3ccc4occc4c3)[nH]2)cc1 : < 5.00

--- query ---
Given item `CCCNNC(=O)c1ccc(CNC(=O)c2cnc(-c3ccc(OC)cc3)[nH]2)cc1` , the value recorded as its pIC50 is < 5.00

---

# Protocol text: Acute toxicity in C57 mouse assessed as body weight change
# Applied conditions: in vivo
Parameter measured: LD50

Given item `CCCNNC(=O)c1ccc(CNC(=O)c2cnc(-c3ccc4occc4c3)[nH]2)cc1` , the value recorded as its LD50 is > 200 mg/kg

---

# Assayed target: Protein deacetylase HDAC6 (Homo sapiens)
# Sequence (Q9UBN7 whole entry): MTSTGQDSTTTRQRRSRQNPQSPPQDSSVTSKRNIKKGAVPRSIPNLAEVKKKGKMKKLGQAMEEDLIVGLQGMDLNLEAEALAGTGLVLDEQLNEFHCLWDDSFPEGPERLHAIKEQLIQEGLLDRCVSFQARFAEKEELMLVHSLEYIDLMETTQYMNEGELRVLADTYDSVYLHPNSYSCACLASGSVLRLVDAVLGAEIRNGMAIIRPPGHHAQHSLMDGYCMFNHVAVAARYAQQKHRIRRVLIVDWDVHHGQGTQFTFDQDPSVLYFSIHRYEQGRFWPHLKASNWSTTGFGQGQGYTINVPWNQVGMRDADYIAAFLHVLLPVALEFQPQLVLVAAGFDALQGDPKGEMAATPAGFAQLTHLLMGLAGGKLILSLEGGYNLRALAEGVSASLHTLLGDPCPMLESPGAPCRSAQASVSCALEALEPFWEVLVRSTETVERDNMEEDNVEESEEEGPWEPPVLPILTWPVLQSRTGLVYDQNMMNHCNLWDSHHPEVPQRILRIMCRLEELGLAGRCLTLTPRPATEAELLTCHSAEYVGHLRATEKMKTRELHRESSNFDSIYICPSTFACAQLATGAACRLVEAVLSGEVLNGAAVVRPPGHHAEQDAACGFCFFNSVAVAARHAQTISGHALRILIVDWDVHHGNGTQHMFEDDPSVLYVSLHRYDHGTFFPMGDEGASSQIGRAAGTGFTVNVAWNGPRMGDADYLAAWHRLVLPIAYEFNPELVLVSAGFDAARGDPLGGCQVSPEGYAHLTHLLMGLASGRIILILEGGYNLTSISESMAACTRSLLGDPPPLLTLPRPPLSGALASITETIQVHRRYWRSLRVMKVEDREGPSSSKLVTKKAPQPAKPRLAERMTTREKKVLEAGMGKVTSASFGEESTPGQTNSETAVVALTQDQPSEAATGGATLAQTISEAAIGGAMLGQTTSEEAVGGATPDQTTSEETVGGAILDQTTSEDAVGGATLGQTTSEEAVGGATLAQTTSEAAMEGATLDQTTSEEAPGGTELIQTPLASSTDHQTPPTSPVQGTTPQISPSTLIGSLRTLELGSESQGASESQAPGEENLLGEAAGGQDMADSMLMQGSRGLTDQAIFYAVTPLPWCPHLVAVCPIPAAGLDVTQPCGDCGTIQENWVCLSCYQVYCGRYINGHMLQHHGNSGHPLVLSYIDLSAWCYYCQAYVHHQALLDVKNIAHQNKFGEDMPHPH
# Protocol text: Inhibition of human recombinant HDAC6 pre-incubated with compounds for 10 mins measured followed by 60 mins of substrate addition
Parameter measured: IC50

CCCNNC(=O)c1ccc(CNC(=O)c2cnc(-c3ccc4c(c3)OCCO4)[nH]2)cc1 : > 10 µM
Nc1ccccc1NC(=O)c1ccc(CNC(=O)c2cnc(-c3ccc4ccccc4c3)[nH]2)cc1 : > 10 µM
CCCNNC(=O)c1ccc(CNC(=O)c2cnc(-c3ccc4ccccc4c3)[nH]2)cc1 : > 10 µM
CCCNNC(=O)c1ccc(CNC(=O)c2cnc(-c3ccc(F)cc3)[nH]2)cc1 : 9.02 µM

Given item `Nc1ccccc1NC(=O)c1ccc(CNC(=O)c2cnc(-c3ccc4c(c3)OCCO4)[nH]2)cc1` , the value recorded as its IC50 is > 10 µM

Given item `Nc1ccccc1NC(=O)c1ccc(CNC(=O)c2cnc(-c3cccc4ccccc34)[nH]2)cc1` , the value recorded as its IC50 is 9.43 µM

Given item `CCCNNC(=O)c1ccc(CNC(=O)c2cnc(-c3ccc4occc4c3)[nH]2)cc1` , the value recorded as its IC50 is > 10 µM

Given item `CCCNNC(=O)c1ccc(CNC(=O)c2cnc(-c3ccc(OC)cc3)[nH]2)cc1` , the value recorded as its IC50 is > 10 µM

---

# Protocol text: MRT (0 to t) in Sprague-Dawley rat at 20 mg/kg, iv measured upto 12 hrs by LC-MS/MS analysis
# Type: ADME, organism-based
# Applied conditions: in vivo
Parameter measured: MRT last at 12 h (h)
Just the number in h, nothing appended.

Given item `CCCNNC(=O)c1ccc(CNC(=O)c2cnc(-c3ccc4occc4c3)[nH]2)cc1` , the value recorded as its MRT last at 12 h is 1.19

---

# Protocol text: Cmax in Sprague-Dawley rat at 20 mg/kg, iv measured upto 12 hrs by LC-MS/MS analysis
# Type: ADME, organism-based
# Applied conditions: in vivo
Parameter measured: Cmax (ng/mL)
Just the number in ng/mL, nothing appended.

Given item `CCCNNC(=O)c1ccc(CNC(=O)c2cnc(-c3ccc4occc4c3)[nH]2)cc1` , the value recorded as its Cmax is 1210

---

# Protocol text: Cmax in Sprague-Dawley rat at 20 mg/kg, po measured upto 12 hrs by LC-MS/MS analysis
# Type: ADME, organism-based
# Applied conditions: in vivo
Parameter measured: Cmax (ng/mL)
Just the number in ng/mL, nothing appended.

Given item `CCCNNC(=O)c1ccc(CNC(=O)c2cnc(-c3ccc4occc4c3)[nH]2)cc1` , the value recorded as its Cmax is 347

---

# Protocol text: AUC (0 to t) in Sprague-Dawley rat at 20 mg/kg, iv measured upto 12 hrs by LC-MS/MS analysis
# Format: ADME, organism-based
# Applied conditions: in vivo
Parameter measured: AUC(0-t) at 12 h (ng·h/mL)
Just the number in ng·h/mL, nothing appended.

Given item `CCCNNC(=O)c1ccc(CNC(=O)c2cnc(-c3ccc4occc4c3)[nH]2)cc1` , the value recorded as its AUC(0-t) at 12 h is 1250
